- Species on record: Rattus norvegicus
- Measurement Description: Inhibition of AMPA receptor in rat brain homogenate at 10 uM
- Format: tissue-based
inhibition values for the compounds below.
Give the number first and the unit second.

Here's what some known entries look like.
{"Smiles Record": "CS(=O)(=O)Nn1c(=O)[nH]c2cc(C(=O)O)ccc2c1=O", "inhibition": "0%"}
{"Smiles Record": "CS(=O)(=O)Nn1c(=O)[nH]c2cc(C3CCCC3)ccc2c1=O", "inhibition": "25%"}
{"Smiles Record": "CS(=O)(=O)Nn1c(=O)[nH]c2cc(-c3ccccc3)ccc2c1=O", "inhibition": "36%"}

get_value(item= CS(=O)(=O)Nn1c(=O)[nH]c2cc(S(C)(=O)=O)ccc2c1=O , readout=inhibition) returns 42%
